target: human CK2 holoenzyme (Homo sapiens); assay: biochemical
quantity: IC50

List the reported IC50 of each molecule below.
1. COc1ccccc1CCn1c2c(c3c(O)cccc31)C(=O)c1ccccc1-2
2. O=C1c2ccccc2-c2c1c1c(O)cc(-c3ccccc3)cc1n2CCc1ccccc1
3. O=c1cc(-c2ccccc2)c(=O)c2c1c1c(=O)c3ccccc3c1n2CCc1ccccc1
4. O=c1ccc(=O)c2c1c1c(=O)c3ccccc3c1n2CCc1ccccc1
5. O=c1cc(-c2ccccc2)c(=O)c2c1c1c(=O)c3ccccc3c1n2Cc1ccccc1

Result:
1.3 µM
~11 µM
~11.5 µM
~13 µM
~13 µM

====

system: Wild-type HEK293 cells; assay: Intrinsic cytotoxicity, MTT cell-survival assay; conditions: 72 hours of treatment
Assign Cytotoxicity IG50 to each entry below.
Numbers only, in µM.

Recorded Cytotoxicity IG50, per entry:
# compound, Cytotoxicity IG50, µM
data = [
    ("COc1cccc(CCn2c3c(c4c(O)cccc42)C(=O)c2ccccc2-3)c1 [Compound 5i]", 45.7),
    ("Cc1cc(O)c2c3c(n(CCc4ccccc4)c2c1)-c1ccccc1C3=O [Compound 5f]", 42.3),
    ("COc1ccccc1CCn1c2c(c3c(O)cccc31)C(=O)c1ccccc1-2 [Compound 5h]", 54),
    ("O=c1cc(-c2ccccc2)c(=O)c2c1c1c(=O)c3ccccc3c1n2Cc1ccccc1 [Compound 6e]", 7.1),
]

List the reported Cytotoxicity IG50 of each compound below.
1. O=c1cc(-c2ccccc2)c(=O)c2c1c1c(=O)c3ccccc3c1n2CCc1ccccc1 [Compound 6g]
2. O=c1ccc(=O)c2c1c1c(=O)c3ccccc3c1n2CCc1ccccc1 [Compound 6c]
3. O=C1c2ccccc2-c2c1c1c(O)cccc1n2CCc1ccccc1 [Compound 5c]

Result:
3.7
6.9
42.7

List the reported Cytotoxicity IG50 of each compound below.
1. O=c1ccc(=O)c2c1c1c(=O)c3ccccc3c1n2CCCc1ccccc1 [Compound 6d]
2. Cc1cc(=O)c2c3c(=O)c4ccccc4c3n(CCc3ccccc3)c2c1=O [Compound 6f]

Result:
6.8
15.6

====

target: human CK2 holoenzyme (Homo sapiens, UniProt P68400); experiment: biochemical; conditions: read-out: CK2 inhibition % at 10 µM
Sequence (P68400 whole entry): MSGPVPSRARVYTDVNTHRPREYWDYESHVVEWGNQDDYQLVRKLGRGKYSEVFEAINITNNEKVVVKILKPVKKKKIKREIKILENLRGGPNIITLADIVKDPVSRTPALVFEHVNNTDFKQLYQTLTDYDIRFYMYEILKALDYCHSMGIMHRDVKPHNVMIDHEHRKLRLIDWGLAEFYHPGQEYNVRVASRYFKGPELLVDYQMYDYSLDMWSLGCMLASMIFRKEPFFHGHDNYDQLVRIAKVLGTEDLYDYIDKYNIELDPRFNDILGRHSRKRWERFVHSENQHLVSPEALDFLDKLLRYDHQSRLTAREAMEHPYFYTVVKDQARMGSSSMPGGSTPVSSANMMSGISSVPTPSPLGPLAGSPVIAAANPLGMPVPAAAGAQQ
Sequence (P67870 whole entry partner): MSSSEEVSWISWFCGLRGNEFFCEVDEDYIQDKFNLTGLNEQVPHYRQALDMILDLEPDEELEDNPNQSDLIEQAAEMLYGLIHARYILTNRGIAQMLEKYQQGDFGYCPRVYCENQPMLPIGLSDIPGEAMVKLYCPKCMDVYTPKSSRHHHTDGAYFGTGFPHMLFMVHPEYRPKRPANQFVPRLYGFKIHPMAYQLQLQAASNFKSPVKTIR
Respond with Met for inhibition at 10 µM values of 40% and above, Not met for values below.

# substance.smiles, class.label
records = [
    ("O=c1cc(-c2ccccc2)c(=O)c2c1c1c(=O)c3ccccc3c1n2CCc1ccccc1", "Met"),
    ("O=C1c2ccccc2-c2c1c1c(O)cccc1n2CCc1ccccc1", "Met"),
]

Task: hey, is inhibition at 10 µM for this one >= 40%? O=C1c2ccccc2-c2c1c1c(O)cccc1n2CCCc1ccccc1
Result: Not met

Task: hey, is inhibition at 10 µM for this one >= 40%? COc1cccc(CCn2c3c(c4c(O)cccc42)C(=O)c2ccccc2-3)c1
Result: Met

Task: hey, is inhibition at 10 µM for this one >= 40%? O=c1ccc(=O)c2c1c1c(=O)c3ccccc3c1n2CCCc1ccccc1
Result: Met

====

Assign pIC50 to each entry below.
Biological target: ABCG2 (Homo sapiens)
Sequence (Q9UNQ0 1-655): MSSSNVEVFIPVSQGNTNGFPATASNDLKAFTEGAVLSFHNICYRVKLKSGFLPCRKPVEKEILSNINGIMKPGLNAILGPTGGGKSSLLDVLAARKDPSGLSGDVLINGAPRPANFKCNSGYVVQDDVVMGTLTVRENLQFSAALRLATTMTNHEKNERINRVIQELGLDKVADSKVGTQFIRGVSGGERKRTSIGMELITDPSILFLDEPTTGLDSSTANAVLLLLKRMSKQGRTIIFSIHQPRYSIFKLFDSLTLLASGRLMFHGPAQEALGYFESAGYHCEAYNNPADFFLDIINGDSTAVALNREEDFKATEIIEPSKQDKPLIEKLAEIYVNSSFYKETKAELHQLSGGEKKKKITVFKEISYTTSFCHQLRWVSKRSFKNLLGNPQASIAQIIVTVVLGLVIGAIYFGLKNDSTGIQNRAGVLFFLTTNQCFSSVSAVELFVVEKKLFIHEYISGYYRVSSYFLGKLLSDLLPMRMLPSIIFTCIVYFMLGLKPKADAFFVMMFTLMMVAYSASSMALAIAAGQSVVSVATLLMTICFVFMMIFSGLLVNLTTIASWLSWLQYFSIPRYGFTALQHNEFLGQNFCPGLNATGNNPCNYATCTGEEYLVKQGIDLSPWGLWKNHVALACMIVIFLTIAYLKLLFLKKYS
Assay: Inhibition of ABCG2-mediated mitoxantrone efflux in ABCG2-transfected cells
Give bare numbers, as −log10 of the molar value.

Recorded pIC50, per entry:
# substance.smiles, recorded.result
measured = [
    ("O=C1c2ccccc2-c2c1c1c(O)cccc1n2CCc1ccccc1", 6.80),
    ("Cc1cc(=O)c2c3c(=O)c4ccccc4c3n(CCc3ccccc3)c2c1=O", 6.08),
    ("O=C1c2ccccc2-c2c1c1c(O)cccc1n2CCCc1ccccc1", 6.19),
]

List the reported pIC50 of each compound below.
1. Cc1cc(O)c2c3c(n(CCc4ccccc4)c2c1)-c1ccccc1C3=O
2. O=c1cc(-c2ccccc2)c(=O)c2c1c1c(=O)c3ccccc3c1n2CCc1ccccc1
3. COc1ccccc1CCn1c2c(c3c(O)cccc31)C(=O)c1ccccc1-2
4. COc1ccc(CCn2c3c(c4c(O)cccc42)C(=O)c2ccccc2-3)cc1
5. COc1cccc(CCn2c3c(c4c(O)cccc42)C(=O)c2ccccc2-3)c1
6. O=C1c2ccccc2-c2c1c1c(O)cc(-c3ccccc3)cc1n2CCc1ccccc1

Result:
1. 6.80
2. 6.37
3. 6.82
4. 6.70
5. 6.43
6. 6.29

Where do the numbers come from? From paper PMC4498724.
